# test-name: chemical genetic growth profiling, strain panel (AID 1159580);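 note: tested at 20 µM; growth read once vehicle control cultures reached saturation at 30 °C; 1 = growth at the plate median or of vehicle wells; lower values mean less growth of the strain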
# condition-summary: S. cerevisiae deletion strains, growth OD, locus YLR262C, strain YPT6
Hit rate of the full screen: of about 5,500 compounds, about 2,000 (36%) were called active. Inconclusive results (about 18%) are left out. Cut-off read from the data, not from the text of the source: active = normalized growth mostly below about 0.91 (no sharp cut-off); inconclusive = no clear call, values can overlap the other calls; inactive = mostly above about 0.92. The list shows a part of the results.
Outcomes: label 1 (active), label 0 (inactive)

- compound: "NCCc1ccc(O)cc1"
  class-name: "label 0"
- compound: "Clc1ccc(Cl)cc1"
  class-name: "label 0"
- compound: "Clc1cccc(-c2csc(Nc3cccnc3)n2)c1"
  class-name: "label 0"
- compound: "COc1cc([C@@H]2c3cc4c(cc3[C@H](OC(C)=O)[C@H]3COC(=O)[C@H]23)OCO4)cc(OC)c1OC"
  class-name: "label 0"
- compound: "CC(N)Cc1ccc(O)cc1 (stereo not given)"
  class-name: "label 0"
- compound: "CCC1C2CC3C4N(C)c5ccccc5C45CC(C2C5OC(C)=O)N3C1OC(C)=O (stereo not given)"
  class-name: "label 0"
- compound: "N[C@@H]1CONC1=O"
  class-name: "label 0"
- compound: "NCCc1ccc(O)c(O)c1"
  class-name: "label 0"
- compound: "O=c1c(-c2ccccc2)coc2cc(O)cc(O)c12"
  class-name: "label 0"
- compound: "CCN1CN=C(SCc2ccc(C)cc2)NC1"
  class-name: "label 0"
- compound: "O=C1NC(c2ccccc2Cl)Nc2ccccc21 (stereo not given)"
  class-name: "label 0"
- compound: "CCCCC1C(=O)N(c2ccccc2)N(c2ccccc2)C1=O"
  class-name: "label 0"
- compound: "NCCc1cccc(O)c1"
  class-name: "label 0"
- compound: "C[C@@H]1CC[C@@]2(OC1)OC1C(O)C3C4CC[C@H]5C[C@H](O[C@@H]6O[C@H](CO)[C@H](O[C@@H]7O[C@H](CO)[C@@H](O)[C@H](O[C@@H]8OC[C@@H](O)[C@H](O)[C@H]8O)[C@H]7O[C@@H]7O[C@H](CO)[C@H](O)[C@H](O[C@@H]8O[C@H](CO)[C@@H](O)[C@H](O)[C@H]8O)[C@H]7O)[C@H](O)[C@H]6O)[C@H](O)C[C@]5(C)C4CC[C@]3(C)C1[C@@H]2C (stereo not given in full)"
  class-name: "label 1"
- compound: "NC(=O)CC[C@@H](N)C(=O)O"
  class-name: "label 0"
- compound: "COc1c2c(cc3c1OCO3)CC[N+](C)=C2"
  class-name: "label 0"
- compound: "CC(=O)N(O)CCCCCNC(=O)CCC(=O)N(O)CCCCCNC(=O)CCC(=O)N(O)CCCCCN"
  class-name: "label 0"
- compound: "CCN(CCCCOC(=O)c1ccc(OC)c(OC)c1)C(C)Cc1ccc(OC)cc1 (stereo not given)"
  class-name: "label 0"
- compound: "CCCCCCc1ccc(O)cc1O"
  class-name: "label 1"
- compound: "COc1ccc2cc3[n+](cc2c1OC)CCc1cc2c(cc1-3)OCO2"
  class-name: "label 0"
- compound: "O=C(Nc1ccccc1SCc1cccc(C(F)(F)F)c1)c1c(F)cccc1Cl"
  class-name: "label 0"
- compound: "COc1ccc(-c2coc3cc(OC)cc(O)c3c2=O)cc1"
  class-name: "label 0"
- compound: "CSC(=NCc1cccnc1)NC#N"
  class-name: "label 0"
- compound: "COC(=O)c1ccc(Cl)cc1N(Cc1ccccc1)S(C)(=O)=O"
  class-name: "label 0"
- compound: "O=c1c2ccccc2[se]n1-c1ccccc1"
  class-name: "label 1"
